The measured values listed here are drawn from ChEMBL document CHEMBL4261594.

target: Acetylcholinesterase (Electrophorus electricus); assay: Mixed type inhibition of electric eel AChE using acetylthiocholine iodide as substrate preincubated for 20 mins followed by substrate addition and measured at 1 min intervals for 30 mins by Cornish-Bowden plot analysis
property name: Ki
In your response, put the unit directly after the numeric value.

Look over these answered cases.
CCCCCCCCCCCCCCC/C=C/C(=O)O 5.51 µM
CCCCCCCCCCCCCCCCCC(=O)O 3.62 µM

Give the measured Ki for `CCCCCCCCCCCCCCCCC/C=C/C(=O)O` 7.15 µM

----------
Give Ki for every item shown.
target: Acetylcholinesterase (Electrophorus electricus, UniProt O42275); test: Mixed type inhibition of electric eel AChE using acetylthiocholine iodide as substrate preincubated for 20 mins followed by substrate addition and measured at 1 min intervals for 30 mins by Dixon plot analysis
Sequence (O42275 whole entry): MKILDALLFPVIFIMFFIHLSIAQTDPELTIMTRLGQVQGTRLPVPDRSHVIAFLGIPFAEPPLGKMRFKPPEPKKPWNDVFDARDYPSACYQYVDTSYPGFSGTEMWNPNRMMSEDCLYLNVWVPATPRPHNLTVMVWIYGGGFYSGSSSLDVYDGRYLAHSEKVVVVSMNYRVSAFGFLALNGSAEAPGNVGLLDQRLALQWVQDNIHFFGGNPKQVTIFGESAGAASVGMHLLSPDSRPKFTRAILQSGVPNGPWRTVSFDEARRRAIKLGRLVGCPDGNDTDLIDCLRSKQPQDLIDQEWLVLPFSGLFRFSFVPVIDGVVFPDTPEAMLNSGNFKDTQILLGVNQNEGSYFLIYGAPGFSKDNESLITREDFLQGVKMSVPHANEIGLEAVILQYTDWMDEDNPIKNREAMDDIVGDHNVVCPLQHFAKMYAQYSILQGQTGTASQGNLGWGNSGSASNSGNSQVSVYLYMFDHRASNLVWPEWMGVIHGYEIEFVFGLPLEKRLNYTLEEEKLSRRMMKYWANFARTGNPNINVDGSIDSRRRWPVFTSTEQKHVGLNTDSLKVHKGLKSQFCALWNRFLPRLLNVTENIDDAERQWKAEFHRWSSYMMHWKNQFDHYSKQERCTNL

Look over these answered cases.
CCCCCCCCCCCCCCC/C=C/C(=O)O 3.21 µM
CCCCCCCCCCCCCCCCCC(=O)O 4.4 µM

Please find the next compound below.
Give the measured Ki for `CCCCCCCCCCCCCCCCC/C=C/C(=O)O` 1.51 µM

----------
Give pIC50 for every item shown.
target: Acetylcholinesterase (Electrophorus electricus); test: Inhibition of electric eel AChE using acetylthiocholine iodide as substrate preincubated for 20 mins followed by substrate addition and measured at 1 min intervals for 30 mins by Ellman's method; details: read-out: IC50
Answers are plain numbers, as −log10 of the molar value.

CCCCCCCCCCCCCCCC(=O)O 4.99

For every listed record, write down its pIC50.
1. CCCCCCCCCCCCCCCCCC(=O)O
2. CCCCCCCCCCCCC/C=C/C(=O)O
3. CCCCCCCCCCCCCCCCC/C=C/C(=O)O
4. CCCCCCCCCCCCCCC/C=C/C(=O)O
5. CCCCCCCCCCCCCCCCCCCC(=O)O
6. CCCCCCCCCCCCCCCCCCC/C=C/C(=O)O

[5.12, 5.10, 5.30, 5.37, 4.89, 4.93]
